- methodSummary: Determination of solubility by shake flask method (water)
- Format: physicochemical
- details: thermodynamic from solid; ‘P’ substituted thiazole compound; water, 37° C., shake flask
recordedEndpoint: solubility at 15 min

Examples with their reported solubility at 15 min follow.
Cn1nc2c(c1CC(=O)N=c1scc(-c3ccc(F)c(C(F)(F)F)c3F)n1COP(=O)([O-])[O-])c(=O)n(C)c(=O)n2C.[Na+].[Na+] [Example 29] ... > 110 µg/mL
Cc1oc2c(c1CC(=O)/N=c1\scc(-c3ccc(OC(F)(F)F)c(Cl)c3)n1COP(=O)(O)O)c(=O)n(C)c(=O)n2C [Example 25] ... > 10 µg/mL
Cc1oc2c(c1CC(=O)/N=c1\scc(-c3ccc(OC(F)(F)F)c(Cl)c3)n1COP(=O)([O-])[O-])c(=O)n(C)c(=O)n2C.[Na+].[Na+] [Example 26] ... > 75 µg/mL
Cn1nc2c(c1CC(=O)/N=c1\scc(-c3ccc(F)c(C(F)(F)F)c3F)n1COP(=O)(O)O)c(=O)n(C)c(=O)n2C [Example 28] ... > 30 µg/mL
Cn1c(=O)c2c(CC(=O)/N=c3\scc(-c4ccc(F)c(C(F)(F)F)c4F)n3COP(=O)(O)O)csc2n(C)c1=O [Example 13] ... > 2.5 µg/mL

INPUT: Consider the compound Cl.Cn1c(=O)c2c(CC(=O)/N=c3\scc(-c4ccc(F)c(C(F)(F)F)c4F)n3COC(=O)C3CCNCC3)csc2n(C)c1=O [Example 10] and give its measured solubility at 15 min.
OUTPUT: > 29 µg/mL

INPUT: Consider the compound Cn1c(=O)c2c(CC(=O)/N=c3\scc(-c4ccc(F)c(C(F)(F)F)c4F)n3COP(=O)([O-])[O-])csc2n(C)c1=O.[Na+].[Na+] [Example 14] and give its measured solubility at 15 min.
OUTPUT: > 1200 µg/mL

Data provenance: patent US9073955B2
